Target: T1, VEGFR-3-Fc (UniProt P35916 25-328)
T1 construct: domain: first three Ig domains; conditioned supernatant of 293T cells; also called VEGFR-3-Fc fusion protein; not shown: Fc fragment of the pIg vector
T1 sequence (looked up): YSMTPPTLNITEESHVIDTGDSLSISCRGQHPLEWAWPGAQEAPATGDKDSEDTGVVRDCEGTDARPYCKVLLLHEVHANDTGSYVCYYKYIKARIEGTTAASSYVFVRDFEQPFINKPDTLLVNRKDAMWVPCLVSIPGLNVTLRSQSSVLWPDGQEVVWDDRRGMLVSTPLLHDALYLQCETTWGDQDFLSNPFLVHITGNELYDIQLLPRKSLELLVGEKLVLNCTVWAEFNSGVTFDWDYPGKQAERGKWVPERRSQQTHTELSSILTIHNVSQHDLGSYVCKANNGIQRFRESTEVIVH
Assay: receptor-Fc IP

{"Binder": "63-7 (ligand) GQNHHEVVKFMDVYQRSYCHPREVCIDVGKEYPDEIEYIFKPPCVSVYRCGGCCNSEGLQCVPTEESNITMQIMRIKPHQGQHIGEMSFANHTSCRCMSKLD", "binding result": "binds"}
{"Binder": "73-7 (ligand) GQNHHEVVKSIDNEWRKTQCMPREVCIDVGKEYPDEIEYIFKPPCVSVYRCGGCCNSEGLQCVPTEESNITMQIMRIKPHQGQHIGEMSFANHTSCRCMSKLD", "binding result": "no binding"}
{"Binder": "43-13 (ligand) AHYNTEILKFMDVYQRSYCHPREVCIDVGKEYPDEIEYIFKPPCVSVYRCGGCCNDEGLECVPTEESNITMQIMRITVPLSQGPKPVTISFANHTSCRCMSKLD", "binding result": "no binding"}
{"Binder": "14-13 (ligand) GQNHHEVVKFMDVYQRSYCHPIETLVDIFQEFGVATNTFFKPSCVPLMRCGGCCNDEGLECVPTEESNITMQIMRITVPLSQGPKPVTISFANHTSCRCMSKLD", "binding result": "no binding"}
{"Binder": "43-8 (ligand) AHYNTEILKFMDVYQRSYCHPREVCIDVGKEYPDEIEYIFKPPCVSVYRCGGCCNSEGLQCMNTSTSYLSKTLFEIKPHQGQHIGEMSFANHTSCRCMSKLD", "binding result": "no binding"}
{"Binder": "41-1 (ligand) AHYNTEILKFMDVYQRSYCHPREVCIDVGKEYPDEIEYIFKPSCVPLMRCGGCCNDEGLECVPTEESNITMQIMRIKPHQGQHIGEMSFLQHNKCECRPKKD", "binding result": "no binding"}
{"Binder": "72-2 (ligand) GQNHHEVVKSIDNEWRKTQCMPREVCIDVGKEFGVATNTFFKPPCVSVYRCGGCCNDEGLECMNTSTSYLSKTLFEIKPHQGQHIGEMSFLQHNKCECRPKKD", "binding result": "binds"}
{"Binder": "63-8 (ligand) GQNHHEVVKFMDVYQRSYCHPREVCIDVGKEYPDEIEYIFKPPCVSVYRCGGCCNSEGLQCMNTSTSYLSKTLFEIKPHQGQHIGEMSFANHTSCRCMSKLD", "binding result": "no binding"}
